B1: Tyrosine-protein kinase BTK, residues 215 to 273; numbered along this chain, Q06187 (parent)
chain: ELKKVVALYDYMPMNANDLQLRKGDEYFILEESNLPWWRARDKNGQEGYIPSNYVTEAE

Variants of: B1
Assay: abundance fitness (aPCA) (normalised: wild type 0, dead -1); higher = more abundant; growth selection in yeast, the domain comes from the species named
Settings: Homo sapiens
Exercise: state measured abundance fitness for each of the variants provided.

Please report the recorded abundance fitness for `E59I` .
-0.014

Look at this variant and give its reported abundance fitness. `E26C`
-0.084

Recorded abundance fitness of `E32P` , please.
-0.007

Given the variant `L30W` , what is its reported abundance fitness?
-0.147

Requested read-out: abundance fitness. Entry: `W37I`
-0.097

Requested read-out: abundance fitness. Entry: `S52D`
-0.232

Would you mind telling me what abundance fitness value was observed for `S52M` ?
0.019

Any idea what abundance fitness was measured for `Q20H` ?
-0.075

So what's the measured abundance fitness for this one? `P51A`
-0.216

Give the measured abundance fitness of `S52T` .
-0.058

Could you tell me which abundance fitness is on file for `I29D` ?
-0.704

For the variant `D18G` , what abundance fitness is on record?
-0.038

What does the record list as abundance fitness for `Y49R` ?
0.04

Would you mind telling me what abundance fitness value was observed for `K23T` ?
-0.112

Which abundance fitness reading was recorded for the variant `Q46W` ?
-0.161

Which measured abundance fitness value corresponds to `A40G` ?
-0.047

Recorded abundance fitness of `G48R` , please.
-0.827

May I ask what abundance fitness has been recorded for `Y27V` ?
-0.022

Which value of abundance fitness has been reported for `W37A` in the records?
-0.03

I'd like to know its abundance fitness. The variant in question is `N17I`
-0.187

Which abundance fitness is listed for `Q46E` ?
-0.005

# query: abundance fitness of entry `R41N`
-0.674
